assay: Parallel artificial membrane permeability assay (PAMPA); assay type: in vitro ADME; conditions: PAMPA Evolution, Pion GIT-0 phospholipid mixture; donor Prisma HT buffer pH 7.4, acceptor sink buffer pH 7.4; ~50 μM, DMSO <0.5%; ~15 h, unstirred; UV read-out; average of quadruplicates; read-out: Pe, effective permeability (Avg. Pe)
assay_endpoint: Papp (×10⁻⁶ cm/s)

C=C(CSCC/C=C/[C@@H]1CC(=O)NCc2nc(cs2)C2=N[C@@](C)(CS2)C(=O)N[C@@H](C(C)C)C(=O)O1)CSCC/C=C/[C@@H]1CC(=O)NCc2nc(cs2)C2=N[C@@](C)(CS2)C(=O)N[C@@H](C(C)C)C(=O)O1 | 5.3
